The values you see were collected from ChEMBL document CHEMBL4513216.

- Tested on: Plasmodium berghei
- TEST METHOD NOTES: Screen against P. berghei liver stage (PbLuc), transformed with Luciferase, at 10uM
- Format: functional, HepG2
- APPLIED CONDITIONS: tested at 10 uM
The campaign covered roughly 69,000 compounds. About 8,600 (12%) showed an effect of 50% or more. The full list was thinned out, with strong results kept by preference.
Known INHIBITION of a selection of molecules

{"MOLECULE": "c1csc(-c2noc(CCCN3CCCC3Cn3cncn3)n2)c1 (stereo unspecified)", "SYSTEM UNDER TEST": "Plasmodium berghei", "INHIBITION": "-9.76%"}
{"MOLECULE": "O=c1[nH]c(COc2ccccc2Cl)nc2c1CCNC2", "SYSTEM UNDER TEST": "Plasmodium berghei", "INHIBITION": "2.15%"}
{"MOLECULE": "COc1ccc(CN2CC[C@H](NC(C)=O)[C@@H](O)CC2)c(F)c1", "SYSTEM UNDER TEST": "Plasmodium berghei", "INHIBITION": "38.2%"}
{"MOLECULE": "O=c1[nH]c(NCc2cccc(-c3ccccc3)c2)nc2c1CCNC2", "SYSTEM UNDER TEST": "Plasmodium berghei", "INHIBITION": "21.9%"}
{"MOLECULE": "O=C(c1ccc(=O)[nH]c1)N1C[C@H]2CC[C@@H](C1)N(Cc1ccccc1)C2", "SYSTEM UNDER TEST": "Plasmodium berghei", "INHIBITION": "-70.7%"}
{"MOLECULE": "O=c1[nH]c(COc2cccc(F)c2)nc2c1CCNC2", "SYSTEM UNDER TEST": "Plasmodium berghei", "INHIBITION": "15.8%"}

###

- System: Plasmodium berghei
- TEST METHOD NOTES: Screen against P. berghei liver stage (PbLuc), transformed with Luciferase, at 10uM
- Type: functional, HepG2
- APPLIED CONDITIONS: tested at 10 uM
Out of some 69,000 compounds screened, about 8,600 (12%) showed an effect of 50% or more. The entries come from a sample that favours strong results as a whole.
Known INHIBITION of a selection of molecules

{"MOLECULE": "c1cncc(CN2CCn3c(Cn4cncn4)cnc3C2)c1", "MEASUREMENT UNITS": "%", "INHIBITION": 31.1}
{"MOLECULE": "Cc1cncc(NC(=O)c2ccc(CN3CC[C@H](O)C3)cc2)c1", "MEASUREMENT UNITS": "%", "INHIBITION": 87.5}
{"MOLECULE": "COc1ccc(NC(=O)c2ccc(CN3CC[C@H](O)C3)cc2)c(OC)n1", "MEASUREMENT UNITS": "%", "INHIBITION": 26.7}
{"MOLECULE": "CC(C)c1noc(CN2CCN(C(=O)c3ccc(F)cc3)CC2)n1", "MEASUREMENT UNITS": "%", "INHIBITION": 16.8}
{"MOLECULE": "CN(C)c1ccc(NC(=O)c2ccnn2C)nc1", "MEASUREMENT UNITS": "%", "INHIBITION": -62.7}
{"MOLECULE": "Cc1cncc(NC(=O)c2ccc(CN3CCCC(C(N)=O)C3)cc2)c1 (stereo unspecified)", "MEASUREMENT UNITS": "%", "INHIBITION": 23}

###

- Test system: Plasmodium berghei
- TEST METHOD NOTES: Screen against P. berghei liver stage (PbLuc), transformed with Luciferase, at 10uM
- Type: functional, HepG2
- APPLIED CONDITIONS: tested at 10 uM
The whole screen tested about 69,000 compounds, of which about 8,600 (12%) showed an effect of 50% or more. The sample holds strong results, similar compounds and a random draw of the others, so the mix is not that of the screen.
READOUT: INHIBITION

{"COMPOUND": "COc1ccc(CCc2nnc(NC(=O)C3CC34CCC4)s2)cc1OC (stereo unspecified)", "MEASURED VALUE": "4.32%"}
{"COMPOUND": "Cn1cc(N2C(=O)CC[C@@H]3[C@H]2CCN3Cc2cccc(C#N)c2)cn1", "MEASURED VALUE": "-24.1%"}
{"COMPOUND": "CN(C)C1CCN(C(=O)c2n[nH]c3c2CCN(CC2CCC2)C3)CC1", "MEASURED VALUE": "-39%"}
{"COMPOUND": "CN(C)CCCNCCC(c1ccccc1)C1CCOC(C)(C)C1 (stereo unspecified)", "MEASURED VALUE": "16.1%"}
{"COMPOUND": "CCN(CC1CCOC1)C(=O)c1ccn(-c2cc(C)ccc2OC)n1 (stereo unspecified)", "MEASURED VALUE": "30.5%"}
{"COMPOUND": "NCCSc1nccc(-c2cnc(C3CC3)nc2-c2ccco2)n1", "MEASURED VALUE": "75.3%"}
{"COMPOUND": "CCCSc1ncc(Cl)c(C(=O)NC(CCSC)C(=O)O)n1 (stereo unspecified)", "MEASURED VALUE": "26.3%"}
{"COMPOUND": "OCCNc1nccc(-c2c[nH]nc2-c2ccco2)n1", "MEASURED VALUE": "-43.4%"}
{"COMPOUND": "Cc1ncc(-c2ccnc(SCCN)n2)c(-c2ccco2)n1", "MEASURED VALUE": "42.6%"}
{"COMPOUND": "Cc1ncc(-c2ccnc(SCCN(C)C)n2)c(-c2ccco2)n1", "MEASURED VALUE": "70.8%"}
{"COMPOUND": "COCCNc1ncc(-c2cc(C)no2)c(-c2ccco2)n1", "MEASURED VALUE": "47.4%"}

###

- Test system: Plasmodium berghei
- TEST METHOD NOTES: Screen against P. berghei liver stage (PbLuc), transformed with Luciferase, at 10uM
- Format: functional, HepG2
- APPLIED CONDITIONS: tested at 10 uM
Hit rate of the full screen: of about 69,000 compounds, about 8,600 (12%) showed an effect of 50% or more. The list comes from a sample in which strong results are over-represented; it also holds close analogues and randomly drawn compounds.
INHIBITION of -40% or higher: true (1). Under -40%: false (0).

{"COMPOUND": "c1ccc2c(c1)CC(Cc1cc(N3CCCC3)cnn1)CO2 (stereo unspecified)", "ASSIGNED CATEGORY": "true (1)"}
{"COMPOUND": "COc1ccc2c(c1)OCC(Cc1cc(N3CCCC3)cnn1)C2 (stereo unspecified)", "ASSIGNED CATEGORY": "false (0)"}
{"COMPOUND": "CC(NCc1cn(CCC(N)=O)c2ccccc12)c1nncn1C (stereo unspecified)", "ASSIGNED CATEGORY": "true (1)"}
{"COMPOUND": "NC(=O)CCn1cc(CNCCCc2ccncc2)c2ccccc21", "ASSIGNED CATEGORY": "false (0)"}
{"COMPOUND": "COc1ccc2c(c1)OCC(Cc1cnc(N)c(C)c1)C2 (stereo unspecified)", "ASSIGNED CATEGORY": "true (1)"}
{"COMPOUND": "COc1ccc2c(c1)OCC(Cc1ccc(N)cn1)C2 (stereo unspecified)", "ASSIGNED CATEGORY": "false (0)"}

###

- Test system: Plasmodium berghei
- TEST METHOD NOTES: Screen against P. berghei liver stage (PbLuc), transformed with Luciferase, at 10uM
- Format: functional, HepG2
- APPLIED CONDITIONS: tested at 10 uM
Among all 69,000 compounds or so, about 8,600 (12%) showed an effect of 50% or more. This is one part of a sample in which strong results are shown more often than they occur.
Label key: yes means INHIBITION under 40%; no means INHIBITION of 40% or more.

{"COMPOUND": "Cc1cc(NC(C)c2n[nH]c(C)n2)n2nc(C)c(C)c2n1 (configuration not stated)", "ASSIGNED CATEGORY": "yes"}
{"COMPOUND": "Cc1c(C(=O)N2CCCSCC2)nnn1-c1ccccc1Cl", "ASSIGNED CATEGORY": "yes"}
{"COMPOUND": "CC(NC(=O)N(C)CCOc1ccccc1F)c1nncn1C (configuration not stated)", "ASSIGNED CATEGORY": "yes"}
{"COMPOUND": "COc1ccc(Cl)cc1NCc1nc2[nH]c(C)c(C)c(=O)n2n1", "ASSIGNED CATEGORY": "yes"}
{"COMPOUND": "Cc1cc(S(=O)(=O)N2CCC(N3CCC(O)C3)CC2)c(Cl)cc1Cl (configuration not stated)", "ASSIGNED CATEGORY": "no"}
{"COMPOUND": "Cc1ccc(S(=O)(=O)N2CC[C@@H](O)C2)c(F)c1", "ASSIGNED CATEGORY": "yes"}
{"COMPOUND": "Cc1nc(C2CCCN2Cc2cc(Cl)c3c(c2)OCCCO3)no1 (configuration not stated)", "ASSIGNED CATEGORY": "no"}
{"COMPOUND": "Cc1c(C(C)NC(=O)N2CCN(C3CCCC3)CC2)cnn1C (configuration not stated)", "ASSIGNED CATEGORY": "no"}
{"COMPOUND": "Cc1cc(S(=O)(=O)N2CC[C@@H](O)C2)c(Cl)cc1F", "ASSIGNED CATEGORY": "yes"}
{"COMPOUND": "CCOc1ncccc1Cn1cc2[nH]cccc-2c1=O", "ASSIGNED CATEGORY": "yes"}
{"COMPOUND": "Cc1nc(C2CCCN2Cc2cc(Cl)c3c(c2)OCO3)no1 (configuration not stated)", "ASSIGNED CATEGORY": "no"}
